Experiment: protein stability index of a GFP-peptide fusion (yeast GPS) (PSI 1-4); higher = more stable; sorted into four equal gates, so the index is relative within each strain
Details: pdr5∆
Outcome: Criterion met for protein stability index of at least 3; Criterion not met for anything lower.

Exercise: Does protein stability index meet or surpass 3 for NNKITQLIAKNVANVSG [SIR3] ?
Solution: Criterion not met

Exercise: # repeat for KTTITRVEPETFEIPQA [SWI3]
Solution: Criterion not met

Exercise: For VVLFNRQPSLHRLSILS [RPO31] then?
Solution: Criterion not met

Exercise: Field entry: DQVLVKGGEQISQLYSD [YJL041W/NSP1]
Solution: Criterion met

Exercise: Please do the same for LEEDSKKVNGTSYKKWS [PRP8] as well.
Solution: Criterion met

Exercise: Would you mind doing IVNHEQDLPKINDKRAN [SRB4] as well?
Solution: Criterion met

Exercise: Subsequent entry: DNNSSLNVSNTKENGDF [PRP8]
Solution: Criterion not met
